Subject of test: Glutamate receptor ionotropic, NMDA 2B (Homo sapiens, UniProt Q13224)
Sequence (Q13224 whole entry): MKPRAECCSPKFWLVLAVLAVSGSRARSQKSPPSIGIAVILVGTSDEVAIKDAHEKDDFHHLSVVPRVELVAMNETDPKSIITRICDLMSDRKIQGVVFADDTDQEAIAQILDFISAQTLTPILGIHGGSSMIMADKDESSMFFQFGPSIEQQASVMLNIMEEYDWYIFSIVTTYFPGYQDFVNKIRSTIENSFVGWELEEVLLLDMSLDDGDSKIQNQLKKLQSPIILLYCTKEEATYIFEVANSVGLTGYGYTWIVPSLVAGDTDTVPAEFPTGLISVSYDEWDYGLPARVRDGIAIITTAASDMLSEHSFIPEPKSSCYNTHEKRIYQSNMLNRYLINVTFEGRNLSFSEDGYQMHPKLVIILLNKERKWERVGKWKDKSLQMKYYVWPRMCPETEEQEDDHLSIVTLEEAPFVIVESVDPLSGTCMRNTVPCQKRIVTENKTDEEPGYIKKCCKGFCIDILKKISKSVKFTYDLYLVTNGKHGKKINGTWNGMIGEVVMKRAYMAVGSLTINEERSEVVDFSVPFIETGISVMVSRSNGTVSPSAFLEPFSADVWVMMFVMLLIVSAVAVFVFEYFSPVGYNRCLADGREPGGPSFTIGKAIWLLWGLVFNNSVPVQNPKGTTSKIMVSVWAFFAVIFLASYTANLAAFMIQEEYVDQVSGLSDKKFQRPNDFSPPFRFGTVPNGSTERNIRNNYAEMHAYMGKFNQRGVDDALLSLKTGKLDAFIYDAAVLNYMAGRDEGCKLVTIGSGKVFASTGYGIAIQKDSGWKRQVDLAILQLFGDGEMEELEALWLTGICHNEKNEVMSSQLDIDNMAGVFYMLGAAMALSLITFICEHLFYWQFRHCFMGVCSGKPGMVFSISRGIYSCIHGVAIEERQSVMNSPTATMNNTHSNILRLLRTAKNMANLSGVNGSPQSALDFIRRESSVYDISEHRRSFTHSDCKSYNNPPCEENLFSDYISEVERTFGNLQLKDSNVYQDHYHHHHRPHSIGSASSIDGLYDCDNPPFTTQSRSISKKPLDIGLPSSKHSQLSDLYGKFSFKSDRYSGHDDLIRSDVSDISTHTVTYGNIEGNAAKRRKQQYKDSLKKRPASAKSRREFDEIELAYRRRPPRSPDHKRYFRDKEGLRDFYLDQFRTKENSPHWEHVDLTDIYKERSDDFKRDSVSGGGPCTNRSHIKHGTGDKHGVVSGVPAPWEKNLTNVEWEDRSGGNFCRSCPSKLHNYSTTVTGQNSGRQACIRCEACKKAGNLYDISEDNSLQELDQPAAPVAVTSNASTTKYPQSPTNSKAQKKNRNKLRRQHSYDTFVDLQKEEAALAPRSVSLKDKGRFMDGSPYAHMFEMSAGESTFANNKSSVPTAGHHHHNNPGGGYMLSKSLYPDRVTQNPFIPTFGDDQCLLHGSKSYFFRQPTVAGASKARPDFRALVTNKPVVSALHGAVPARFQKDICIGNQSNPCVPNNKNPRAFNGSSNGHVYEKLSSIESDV
Measured property: IC50 (µM)
Write down the numeric answer in µM and omit the unit.

Observed IC50 on Glutamate receptor ionotropic, NMDA 2B (Homo sapiens, UniProt Q13224) for O=C(CN1C[C@@H]2C[C@@](O)(c3ccccc3)C[C@@H]2C1)c1ccc(O)cc1 , please.
10
